melting point: recorded values

Field: example entries. Status: answers known.
CC1(C(=O)Nc2ccc(Oc3ccc(Cl)cc3)c(C(F)(F)F)c2)CC1 : 115 to 117 °C
CC(C)(O)C(=O)c1ccc(C(O)c2ccc(C(=O)C(C)(C)O)cc2)cc1 : 130 °C
COC(=O)/C=C/c1ccc(-c2ccc(C)cc2)o1 : 113 to 115 °C
CN1C(C(=O)Nc2cncc(Cl)n2)=C(O)c2cc(Cl)ccc2S1(=O)=O : 283 to 284 °C
COCCN=Cc1cc(OC)c(OC)cc1[N+](=O)[O-] : 65 to 66 °C

Supply melting point value. Item: O=C(O)C1=NN(c2cccc(Cl)c2)C(c2ccccc2)CC1 (configuration not stated)
157 to 158 °C

Supply melting point value. Item: "Cc1cccc(C(=O)NCN2CCN(c3cccc(C#N)c3)CC2)c1"
59 to 61 °C

###

melting point: recorded values

Field: example entries. Status: answers known.
COc1ccc2c(N)c3ccccc3nc2c1 : 169 to 170 °C
COc1cc(C(=O)NNC(=N)N)c(OC)cc1C : 193 °C
CN(C)C=C(C#N)C=NN(C)C : 130 to 134 °C

Supply melting point value. Item: "Cc1cc(NC(=O)OC(C)(C)C)c([N+](=O)[O-])cc1I"
99 to 100 °C

Supply melting point value. Item: "C#CCOc1cc([N+](=O)[O-])c(F)cc1Cl"
88 to 89 °C

Supply melting point value. Item: "Cc1ccccc1-c1c(NC(=O)Nc2ccc(F)cc2F)c(=O)oc2c(F)cc(F)cc12"
220 to 221 °C

Supply melting point value. Item: "CNc1nc2[nH]c(-c3cccc(CNC(=O)COC)n3)cc2c2c1ncn2C"
263 °C

Supply melting point value. Item: Cc1ccc(OC(=O)N2CC3CC(CN(CC(O)COc4ccc(C#N)cc4)C3)C2)cc1 (stereo not given)
125 to 126 °C

Supply melting point value. Item: "COc1c(OCc2ccccc2)ccc2cc[nH]c12"
66 to 67 °C

Supply melting point value. Item: O=C1c2ccccc2C(=O)N1CC(=O)N1c2ccccc2N(Cc2ccc(O)cc2)C(=O)[C@H]2CCC[C@H]21 (relative stereo)
264 to 267 °C

###

melting point: recorded values

CCn1c(=O)n(O)c(=O)c2cc(F)c(N3CCOCC3)cc21 : 162 to 163 °C
O=C(CCl)Nc1csc(Br)n1 : 146 to 148 °C
O=C(N1CCOCC1)n1nc2c(Cl)c(Cl)c(Cl)c(Cl)c2n1 : 194 °C

Supply melting point value. Item: "ClCCN1CCC(=C(c2ccccc2)c2ccccc2)CC1"
85 to 86 °C

Supply melting point value. Item: "CCOC(=O)Cc1[nH]c(C(=O)c2ccccc2)c(C)c1C(=O)OCC"
152 to 154 °C

Supply melting point value. Item: "O=c1cc(-c2ccc3c(c2)CCCC3)[nH]c2ccccc12"
241 to 250 °C

###

melting point: recorded values

CCOC(=O)c1cc([N+](=O)[O-])c(Cl)nc1C(=O)OCC : 70 to 72 °C

Supply melting point value. Item: Cn1c(COc2ccc(CC3SC(=O)NC3=O)cc2)nc2ccc(OCc3ccccc3)nc21 (stereo not given)
210 to 211 °C

###

melting point: recorded values

Field: example entries. Status: answers known.
CC1C(=CC2C(C(=O)O)C2(C)C)C1(F)F (stereo unspecified) : 97.7 °C
O=C1c2cccc([N+](=O)[O-])c2C(=O)N1c1ccc(O)cc1 : 202 °C

Supply melting point value. Item: "CN1CCN(C(=O)Nc2ccccc2C=Cc2cc(C(C)(C)C)c(O)c(C(C)(C)C)c2)CC1"
192 to 194 °C

Supply melting point value. Item: O=C1NCC(Cc2ccc(Br)cc2)O1 (stereo unspecified)
115 to 117 °C

Supply melting point value. Item: COCC1CN(c2ccc3ccc(O)cc3c2)C(=O)O1 (stereo unspecified)
155 to 157 °C

###

observed.property: melting point

Field: example entries. Status: answers known.
Cc1ccc(S(=O)(=O)OC[C@H]2CCc3ccc4ccccc4c3O2)cc1 : 107 to 111 °C
COS(=O)(=O)CS(C)(=O)=O : 101 to 104 °C
Cc1cccc(C(=O)O)c1NC(=O)/C=C1\SCC(=O)N1C : 187 °C

Supply melting point value. Item: CC(C)(C)c1ccc(C[C@@H](NC(=O)c2cccc3c2C=CCCC3)[C@@H](O)c2ccc(F)cc2)cc1 (racemic)
140 to 142 °C

Supply melting point value. Item: "COc1ccc(-c2nnn(-c3ccc(C(F)(F)F)cc3Cl)c2CBr)cc1"
152 to 154 °C

Supply melting point value. Item: "Cc1c(-c2ccc(O)cc2)nnn1-c1ccc(C(F)(F)F)cc1Cl"
176 to 177 °C

Supply melting point value. Item: "COc1ccc(Oc2cnc(N)nc2N)c(C(C)C)c1"
170 to 171 °C

###

observed.property: melting point

Field: example entries. Status: answers known.
CC(C#N)c1cccc(C(=O)c2ccccc2)c1 (stereo unspecified) : 88 to 94 °C
CCCCn1c(N)cc(=O)n(CCCC)c1=O : 90.1 to 92.4 °C
C=CCOc1ccc2c(C)cc(=O)oc2c1C(=O)C=Cc1cccc(OC)c1 : 61 to 63 °C

Supply melting point value. Item: "C#CCN(Cc1cc2c(=O)n(C)c(CN3CCOCC3)nc2cc1Cl)c1ccc(C(=O)OC(C)(C)C)cc1"
140 to 143 °C

Supply melting point value. Item: "Cn1c(-c2ccc([N+](=O)[O-])cc2)nc2ccccc21"
208 to 209 °C

###

melting point: recorded values

Field: example entries. Status: answers known.
CCC(C)N1CC(=O)N(C(C)CC)CC1=O (centres undefined) : 95.5 to 97.5 °C
Cc1cc(Oc2c(Cl)cc(C(F)(F)F)cc2Cl)nn1C(=O)NCc1ccccn1 : 121 to 123 °C

Supply melting point value. Item: CCCCCCCCCCN(C[C@H]1CCC[C@H](CN(CCCCCCCCCC)C(=O)Nc2ccc(N(C)C)cc2)C1)C(=O)Nc1ccc(N(C)C)cc1 (relative stereo)
115 to 117 °C

Supply melting point value. Item: COc1ccc(OC)c2c1CCC(NC(C)=O)C2 (centres undefined)
156 to 158 °C

Supply melting point value. Item: CC(=O)N1CCN(C(=O)OC2C3=C(SCCS3)C(=O)N2c2ccc3ccc(Cl)nc3n2)CC1 (centres undefined)
271 °C

Supply melting point value. Item: "O=Cc1cccc(-c2cccs2)n1"
48 to 50 °C

Supply melting point value. Item: CC(C)(C)OC(=O)C(Nc1ccccc1)c1cccc(F)c1 (racemic)
90 °C

Supply melting point value. Item: "COc1ccc(C(=O)c2ccc(-n3ccnc3)cc2)cc1OC"
149 to 151 °C

Supply melting point value. Item: "Cn1ncnc1COc1nn2c(-c3ccc(F)cc3F)nnc2cc1C1(C)CCCCC1"
196 °C

###

melting point: recorded values

Field: example entries. Status: answers known.
CCCCCCc1cc2c(s1)-n1c(C)nnc1CN=C2c1ccccc1C : 135 to 137 °C
CC(=O)c1cscc1O : 44 to 47 °C
Nc1c([N+](=O)[O-])cnc2sccc12 : 227 to 228 °C
CCCCCCCCc1c(CC)nc2nc(Cl)nn2c1N : 202 to 203 °C
CCOc1cc(-c2cc(C(F)(F)F)n3ncc(C(=O)Nc4cccc(S(=O)(=O)N5CCOCC5)c4)c3n2)ccc1C(F)(F)F : 235 °C

Supply melting point value. Item: "Cc1ccc(CCCCCCCCCCC(Cl)(Cl)C(=O)O)cc1"
58 to 59 °C

Supply melting point value. Item: "C/C(=C/C(=O)N(C)O)c1ccn(-c2c(C)cccc2C)c1"
158 to 160 °C

Supply melting point value. Item: COC(=O)C1=C(c2ccc(OC)cc2)C(c2ccc(OC)cc2)OC1=O (stereo unspecified)
107 to 109 °C

Supply melting point value. Item: "C#CCCCc1c2c(nn1CCC)c(N)nc1ccccc12"
144 to 145 °C

Supply melting point value. Item: "CCC(=O)NCCC1=CCc2cc(F)c(OC)cc21"
140 to 143 °C

Supply melting point value. Item: CS(=O)CC(=O)c1ccon1 (stereo unspecified)
164 to 166 °C

###

observed.property: melting point

Field: example entries. Status: answers known.
COCCOCCOc1cc(OC)c(/C=C/C(=O)c2ccc(C(=O)O)cc2)cc1-c1cccs1 : 174 to 175 °C
CC(Cc1cc(C(=O)c2ccccc2)ccc1OC(=O)C(C)(C)C)C(=O)O (stereo unspecified) : 119 to 120 °C

Supply melting point value. Item: "OCCCc1cnoc1-c1ccc(Cl)c(F)c1"
51 to 52 °C

Supply melting point value. Item: "O=C(NC1CCCCCC1)c1cccc(C(=O)NC2CCCCCC2)c1"
285 to 286 °C

Supply melting point value. Item: CC(C)(C)C(=O)C(Cc1ccc(Cl)cc1)n1cncn1 (stereo unspecified)
124 °C
